# ORYSAT herbicidal rating (rice tolerance) per record follows
test system: Oryza sativa, (L.) Tebonnet; experiment: Rice tolerance to post-transplant applications under flooded paddy conditions (Example 187), ORYSAT (Rice, Tebonnet); conditions: 0.1250 kg/ha, rated three to four weeks after treatment
Parameter: ORYSAT herbicidal rating (rice tolerance)

[
  {
    "Sample Smiles": "Cn1c(C(F)(F)F)cc(=O)n(-c2cc3c(C(=O)NS(=O)(=O)Cc4ccccc4)nsc3cc2F)c1=O",
    "Observed Result": 6.0
  },
  {
    "Sample Smiles": "Cn1c(C(F)(F)F)cc(=O)n(-c2ccc3snc(C(C)(C)C(=O)OCc4ccco4)c3c2)c1=O",
    "Observed Result": 6.0
  },
  {
    "Sample Smiles": "COC(=O)COc1cc(Cl)c(C)cc1-c1nsc2ccc(-n3c(=O)cc(C(F)(F)F)n(C)c3=O)cc12",
    "Observed Result": 3.0
  },
  {
    "Sample Smiles": "CC(C)OC(=O)C(C)(C)c1nsc2ccc(-n3c(=O)cc(C(F)(F)F)n(C)c3=O)cc12",
    "Observed Result": 6.0
  },
  {
    "Sample Smiles": "Cc1cccc(CS(=O)(=O)NC(=O)c2nsc3ccc(-n4c(=O)cc(C(F)(F)F)n(C)c4=O)cc23)c1",
    "Observed Result": 5.0
  },
  {
    "Sample Smiles": "COC(=O)COc1cc(C)ccc1-c1nsc2cc(F)c(-n3c(=O)cc(C(F)(F)F)n(C)c3=O)cc12",
    "Observed Result": 9.0
  },
  {
    "Sample Smiles": "Cc1ccccc1CS(=O)(=O)NC(=O)c1nsc2ccc(-n3c(=O)cc(C(F)(F)F)n(C)c3=O)cc12",
    "Observed Result": 4.0
  }
]

###

test system: Oryza sativa, (L.) Tebonnet; experiment: Rice tolerance to post-transplant applications under flooded paddy conditions (Example 187), ORYSAT (Rice, Tebonnet); conditions: Rate 0.0620 kg/ha, rated 3-4 weeks after treatment; on herbicidal effect rating ORYSAT: meaning of each grade not given here
# herbicidal effect rating ORYSAT per record follows
Parameter: herbicidal effect rating ORYSAT

[
  {
    "Compound": "Cc1ccc(OCC(N)=O)c(-c2nsc3ccc(-n4c(=O)cc(C(F)(F)F)n(C)c4=O)cc23)c1",
    "Observed Result": 1.0
  },
  {
    "Compound": "Cc1ccc(OCC(=O)OCCC2OCC(C)(C)CO2)c(-c2nsc3ccc(-n4c(=O)cc(C(F)(F)F)n(C)c4=O)cc23)c1",
    "Observed Result": 4.5
  },
  {
    "Compound": "C=CCOCC(CC)(COCC=C)COC(=O)COc1ccc(C)cc1-c1nsc2ccc(-n3c(=O)cc(C(F)(F)F)n(C)c3=O)cc12",
    "Observed Result": 0.0
  },
  {
    "Compound": "Cn1c(C(F)(F)F)cc(=O)n(-c2ccc3snc(-c4ccccc4OCC(N)=O)c3c2)c1=O [Example 563]",
    "Observed Result": 7.0
  },
  {
    "Compound": "Cn1c(C(F)(F)F)cc(=O)n(-c2ccc3snc(-c4ccccc4OCC(N)=O)c3c2)c1=O [Example 548]",
    "Observed Result": 2.0
  },
  {
    "Compound": "C=CC(CCCC)OC(=O)COc1ccc(C)cc1-c1nsc2ccc(-n3c(=O)cc(C(F)(F)F)n(C)c3=O)cc12 (stereo not shown)",
    "Observed Result": 3.5
  },
  {
    "Compound": "CC(C)S(=O)(=O)NC(=O)COc1ccccc1-c1nsc2ccc(-n3c(=O)cc(C(F)(F)F)n(C)c3=O)cc12",
    "Observed Result": 6.0
  }
]

###

# herbicidal effect rating, CYPSE per record follows
system: Cyperus serotinus, Rottb.; experiment: Preemergence weed control under flooded paddy conditions, CYPSE (Flatsedge); format: in vivo; conditions: Rate 0.0320 kg/ha, preemergence, rated 3-4 weeks after treatment; further: meaning of each grade not given here

[
  {
    "Compound": "Cc1ccc(OC(C)(C)C(=O)OCC(F)(F)F)c(-c2nsc3ccc(-n4c(=O)cc(C(F)(F)F)n(C)c4=O)cc23)c1",
    "herbicidal effect rating, CYPSE": 0.0
  },
  {
    "Compound": "Cc1ccc(OCC(=O)OCC2CCOC2)c(-c2nsc3ccc(-n4c(=O)cc(C(F)(F)F)n(C)c4=O)cc23)c1 (racemic)",
    "herbicidal effect rating, CYPSE": 0.0
  },
  {
    "Compound": "CCCS(=O)(=O)NC(=O)COc1ccccc1-c1nsc2ccc(-n3c(=O)cc(C(F)(F)F)n(C)c3=O)cc12",
    "herbicidal effect rating, CYPSE": 2.0
  },
  {
    "Compound": "CCCCCCC#CCCOC(=O)COc1ccc(C)cc1-c1nsc2ccc(-n3c(=O)cc(C(F)(F)F)n(C)c3=O)cc12",
    "herbicidal effect rating, CYPSE": 0.0
  }
]

###

# herbicidal effect rating, MOOVA per record follows
test system: Monochoria vaginalis, Presl.; experiment: Preemergence weed control under flooded paddy conditions, MOOVA (Monochoria); assay type: in vivo; settings: 0.0313 kg/ha; preemergence, flooded paddy; rated three to four weeks after treatment; on herbicidal effect rating, MOOVA: meaning of each grade not given here

[
  {
    "Sample Smiles": "CCN(CC)C(=O)COc1ccc(C)cc1-c1nsc2ccc(-n3c(=O)cc(C(F)(F)F)n(C)c3=O)cc12",
    "herbicidal effect rating, MOOVA": 9.0
  },
  {
    "Sample Smiles": "CCc1ccc(OC)c(-c2nsc3ccc(-n4c(=O)cc(C(F)(F)F)n(C)c4=O)cc23)c1",
    "herbicidal effect rating, MOOVA": 9.0
  },
  {
    "Sample Smiles": "Cn1c(C(F)(F)F)cc(=O)n(-c2ccc3snc(-c4ccccc4)c3c2)c1=O",
    "herbicidal effect rating, MOOVA": 9.0
  },
  {
    "Sample Smiles": "C=CCOc1ccc(C)cc1-c1nsc2ccc(-n3c(=O)cc(C(F)(F)F)n(C)c3=O)cc12",
    "herbicidal effect rating, MOOVA": 0.0
  }
]

###

# MOOVA herbicidal rating per record follows
test system: Monochoria vaginalis, Presl.; assay: Preemergence weed control under flooded paddy conditions, MOOVA (Monochoria); assay type: in vivo; details: 0.1250 kg/ha; preemergence, flooded paddy; rated three to four weeks after treatment

[
  {
    "Sample Smiles": "C=CCOC(=O)C(C)(C)c1nsc2ccc(-n3c(=O)cc(C(F)(F)F)n(C)c3=O)cc12",
    "Assayed Target": "Monochoria vaginalis, Presl.",
    "MOOVA herbicidal rating": 9.0
  },
  {
    "Sample Smiles": "COC(=O)COc1cc(Cl)c(C)cc1-c1nsc2ccc(-n3c(=O)cc(C(F)(F)F)n(C)c3=O)cc12",
    "Assayed Target": "Monochoria vaginalis, Presl.",
    "MOOVA herbicidal rating": 7.0
  },
  {
    "Sample Smiles": "C=CCOc1c(I)cc(C)cc1-c1nsc2ccc(-n3c(=O)cc(C(F)(F)F)n(C)c3=O)cc12",
    "Assayed Target": "Monochoria vaginalis, Presl.",
    "MOOVA herbicidal rating": 7.0
  },
  {
    "Sample Smiles": "CSCOCc1nsc2ccc(-n3c(=O)cc(C(F)(F)F)n(C)c3=O)cc12",
    "Assayed Target": "Monochoria vaginalis, Presl.",
    "MOOVA herbicidal rating": 9.0
  },
  {
    "Sample Smiles": "Cn1c(C(F)(F)F)cc(=O)n(-c2ccc3snc(C(=O)NS(=O)(=O)Cc4ccc(Cl)cc4)c3c2)c1=O",
    "Assayed Target": "Monochoria vaginalis, Presl.",
    "MOOVA herbicidal rating": 7.0
  },
  {
    "Sample Smiles": "Cn1c(C(F)(F)F)cc(=O)n(-c2ccc3snc(COC(=O)c4ccc([N+](=O)[O-])o4)c3c2)c1=O",
    "Assayed Target": "Monochoria vaginalis, Presl.",
    "MOOVA herbicidal rating": 6.0
  },
  {
    "Sample Smiles": "Cn1c(C(F)(F)F)cc(=O)n(-c2ccc3snc(COC(=O)c4ccc(Cl)nc4)c3c2)c1=O",
    "Assayed Target": "Monochoria vaginalis, Presl.",
    "MOOVA herbicidal rating": 7.0
  },
  {
    "Sample Smiles": "COC(CCOc1ccc(C)cc1-c1nsc2ccc(-n3c(=O)cc(C(F)(F)F)n(C)c3=O)cc12)OC",
    "Assayed Target": "Monochoria vaginalis, Presl.",
    "MOOVA herbicidal rating": 9.0
  },
  {
    "Sample Smiles": "Cn1c(C(F)(F)F)cc(=O)n(-c2ccc3snc(COC(=O)c4ccncc4)c3c2)c1=O",
    "Assayed Target": "Monochoria vaginalis, Presl.",
    "MOOVA herbicidal rating": 9.0
  }
]

###

# herbicidal effect rating, MOOVA per record follows
tested on: Monochoria vaginalis, Presl.; test: Preemergence weed control under flooded paddy conditions, MOOVA (Monochoria); type: in vivo; details: Rate 0.5000 kg/ha; preemergence, flooded paddy; rated 3-4 weeks after treatment; on herbicidal effect rating, MOOVA: meaning of each grade not given here

[
  {
    "Molecule": "Cc1ccc(C(=O)C(C)Oc2ccccc2-c2nsc3ccc(-n4c(=O)cc(C(F)(F)F)n(C)c4=O)cc23)cc1C (stereo not drawn)",
    "herbicidal effect rating, MOOVA": 9.0
  },
  {
    "Molecule": "CCS(=O)(=O)NC(=O)COc1ccccc1-c1nsc2ccc(-n3c(=O)cc(C(F)(F)F)n(C)c3=O)cc12",
    "herbicidal effect rating, MOOVA": 9.0
  },
  {
    "Molecule": "Cn1c(C(F)(F)F)cc(=O)n(-c2ccc3snc(-c4ccccc4OCC(N)=O)c3c2)c1=O",
    "herbicidal effect rating, MOOVA": 9.0
  }
]

src = patent EP0908457B1
